- TARGET OR SYSTEM: Ks-Amt5 (ammonium sensor/transducer) (Candidatus Kuenenia stuttgartensis)
- Sequence (Q1Q357 1-679): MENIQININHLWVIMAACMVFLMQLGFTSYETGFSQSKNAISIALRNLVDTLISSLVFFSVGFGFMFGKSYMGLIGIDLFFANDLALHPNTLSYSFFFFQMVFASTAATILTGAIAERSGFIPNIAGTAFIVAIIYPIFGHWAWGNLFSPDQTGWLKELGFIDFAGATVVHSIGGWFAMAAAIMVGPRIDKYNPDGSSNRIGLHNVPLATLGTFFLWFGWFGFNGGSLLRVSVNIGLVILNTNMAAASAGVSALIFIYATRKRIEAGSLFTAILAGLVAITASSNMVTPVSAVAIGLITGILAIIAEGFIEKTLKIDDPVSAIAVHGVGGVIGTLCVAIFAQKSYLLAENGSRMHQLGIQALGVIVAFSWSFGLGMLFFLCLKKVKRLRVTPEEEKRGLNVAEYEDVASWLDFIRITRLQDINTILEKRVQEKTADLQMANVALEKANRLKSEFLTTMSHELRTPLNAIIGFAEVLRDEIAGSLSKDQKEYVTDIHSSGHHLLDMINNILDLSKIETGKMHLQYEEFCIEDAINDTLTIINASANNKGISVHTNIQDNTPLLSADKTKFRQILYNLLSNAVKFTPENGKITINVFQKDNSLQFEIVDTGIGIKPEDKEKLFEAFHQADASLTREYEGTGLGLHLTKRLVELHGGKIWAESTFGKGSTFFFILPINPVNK
- PROCEDURE SUMMARY: microscale thermophoresis (weak; no electrogenic response)
- Assay type: binding
- Parameters: gene amtb; Ks-Amt5
METRIC: Kd (mM)
Unit mM implied. Number only.

Enquiry: Sample CN [MA, methylammonium] — what was its Kd?
Return: 2.35

----------
- TARGET OR SYSTEM: Ks-Amt5 (ammonium sensor histidine kinase, HK domain) (Candidatus Kuenenia stuttgartensis)
- Construct: gene amtb; Ks-Amt5^426–679 (soluble HK domain)
- Sequence (Q1Q357 entry or part of it): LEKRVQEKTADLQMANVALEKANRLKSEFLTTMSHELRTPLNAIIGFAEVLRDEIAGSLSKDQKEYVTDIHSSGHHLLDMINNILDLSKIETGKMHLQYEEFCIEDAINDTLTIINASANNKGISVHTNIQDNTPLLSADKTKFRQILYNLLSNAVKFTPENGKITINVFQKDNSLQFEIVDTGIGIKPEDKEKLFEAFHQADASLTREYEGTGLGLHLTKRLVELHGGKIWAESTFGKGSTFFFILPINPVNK
- PROCEDURE SUMMARY: isothermal titration calorimetry (also SAXS and […] autophosphorylation)
- Assay type: binding
METRIC: pKd
Scale note: pKd = -log10(concentration in M).

Enquiry: Sample Nc1ncnc2c1ncn2[C@@H]1O[C@H](COP(=O)(O)OP(=O)(O)OP(=O)(O)O)[C@@H](O)[C@H]1O — what was its pKd?
Return: 4.95
